Target: T1, Soluble heterodimeric CD3 protein (hCD3-epsilon/hCD3-delta) with either a human Fc tag (hFcΔAdp/hFc) or a … (human, UniProt P07766 23-126; P04234 22-105)
T1 construct: also called hCD3ε/δ; not shown: Fc tag: human (hFcΔAdp/hFc)
T1 sequence (P07766 23-126 limits assumed, stated change not applied, chain 1 of 2): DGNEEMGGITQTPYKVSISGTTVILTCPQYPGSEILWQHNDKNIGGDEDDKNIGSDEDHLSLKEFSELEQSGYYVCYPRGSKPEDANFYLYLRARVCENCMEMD
T1 sequence (P04234 22-105 limits assumed, stated change not applied, chain 2 of 2): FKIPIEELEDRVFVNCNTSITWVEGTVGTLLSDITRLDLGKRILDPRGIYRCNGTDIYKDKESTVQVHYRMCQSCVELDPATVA
Test: SPR Biacore 25C antigen-capture
measure: T½

stdin: What measured T½ goes with H1H5780P (antibody, human IgG1, V domains shown, H1H: human IgG1 Fc; divalent) VH: EVQLVESGGGLVQPGRSLRLSCAASGFTFDDYAMHWVRQAPGKGLEWVSGISWNGGSKDYADSVKGRFTISRDNTRNSLSLQMNSLRIEDTALYYCAKDKSGYGSFYYGLDVWGQGTTVTVSS VL: EIVLTQSPGTLSLSPGDRATLSCRASQSIRSIYLAWYQQKPGQAPRLLIHGASTRATGIPDRFSGSGSGTDFTLTISRLEPEDFAVYYCQQRVSSPYTFGQGTKLEIK ?
stdout: 68 min

stdin: Fill blank: measured T½ of the binder H1H5786B (antibody, human IgG1, V domains shown, H1H: human IgG1 Fc; divalent) VH: QVQLVESGAEVKKPGASVKVSCKTSGYTFTGYYMHWIRQAPGQGLEWMGWINPKSGGTNYAQKFQGRVTMTRDTSISTAYMELSRLRSDDMAVYYCARMGDGAVFDFWGQGTLVTVSS VL: AIQMTQSPSSLSASVGDRVTITCRASQRISSFLNWYQQKPGKAPKLLIYTASNLQNGVPSRFSGSGSGTDFTLTISSLQPEDFATYYCQQSYRTPLTFGGGTKVEIKR is ____.
stdout: 27 min

stdin: I have this binder here, H1H5756B (antibody, human IgG1, V domains shown, H1H: human IgG1 Fc; divalent) VH: EVQLVESGGGVVQPGRSLRLSCTASGFPFSRYGMHWVRQAPGKGLEWVTFIWYDGSNKYYADSAKGRFTITRDNSKNTVYLQMDSLRADDTAVYYCVRDQAALYYFDSWGQGTLVTVSS VL: DIQMTQSPSSVSASVGDRVTITCRASQGISRWLAWYQQKPGKAPKLLISAASSLQSGVPSRFSGSGSGTDFTLTISGLQPEDFATYYCQKANSFPFTFGPGTKLEIKR , and I need its recorded T½.
stdout: 105 min

stdin: Which value of T½ has been reported for H1H5788P (antibody, V domains shown, H1H: human IgG1 Fc; divalent) VH: EVQLVESGGGLVQPGRSLRLSCAASGFTFDDYTMHWVRQAPGKGLEWVSGISWNSGSIGYADSVKGRFTISRDNAKNSLYLQMNSLRAEDTALFYCAKDQSGYGHYYYGMDVWGQGTTVTVSS VL: EIVMTQSPATLSVSPGERATLSCRASQSVSSNLAWYQQKPGQAPRLLIYGASTRATDIPARFSGSGSGTEFTLTISSLQSEDFAVYHCQQYNNWPLTFGGGTKVEIK in the records?
stdout: 70 min

stdin: Request the reported T½ associated with H2M2774N (antibody, mouse IgG2, V domains shown, H2M: mouse IgG2 Fc, human variable regions; divalent) VH: QVQLVESGGGVVQPGRSLRLSCVASGFTFRSYGMHWVRQAPGKGLQWVAMIYYDGKNKYYADSVRGRFTISRDNSKNTLYLQMNSLRAEDTAMYFCARGPGYNWLDPWGQGTLVTVSS VL: EIVMTQSPATLSVSPGERATLSCRASQRISSNLAWYQQKPGQAPRLLIYGASTRATGSPARFSGSGSGTEFTLTISSLQSEDVAVYYCQQHNNWPLTFGGGTKVEIK
stdout: 34 min

stdin: // T½ lookup, key: H2M2708N (antibody, mouse IgG2, V domains shown, H2M: mouse IgG2 Fc, human variable regions; divalent) VH: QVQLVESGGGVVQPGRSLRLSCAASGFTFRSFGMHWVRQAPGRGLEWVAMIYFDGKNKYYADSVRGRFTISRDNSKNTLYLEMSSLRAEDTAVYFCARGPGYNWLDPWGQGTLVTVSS VL: EIVMTQSPATLSVSPGERVTLSCRASQSISRNLAWYQQKPGQAPRLLIYGASTRATGVPARFSGSGSGTEFTLTISSLQSEDFAVFHCQQYNNRPLTFGGGTEVEIK
stdout: 51 min

stdin: Requested field: T½. Item: H2M2886N (antibody, mouse IgG2, V domains shown, H2M: mouse IgG2 Fc, human variable regions; divalent) VH: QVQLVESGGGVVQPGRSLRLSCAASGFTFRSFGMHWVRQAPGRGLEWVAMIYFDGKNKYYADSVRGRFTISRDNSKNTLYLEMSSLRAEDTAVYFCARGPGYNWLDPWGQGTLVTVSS VL: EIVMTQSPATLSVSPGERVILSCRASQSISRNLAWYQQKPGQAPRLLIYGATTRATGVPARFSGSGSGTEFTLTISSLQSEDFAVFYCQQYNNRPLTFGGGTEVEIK
stdout: 85 min

stdin: Endpoint output: T½ of H1H5757B (antibody, human IgG1, V domains shown, H1H: human IgG1 Fc; divalent) VH: EVQLVESGGGVVQPGRSLRLSCAASGFTFSSYGMHWVRQAPGKGLEWVTVILHDGSNRYSADSVKGRFTISRDNSKNTLYLQMNILRVEDTAVYYCTKGAMVRGVPYNHYYGMDVWGQGTTVTVSS VL: DIQMTQSPSSLSASVGDRVTITCRASQGIRNDLGWYQQKPGKAPKRLIYAASILQSGVPSRFSGSGSGTEFTLTISSLQPEDFATYYCLQHNSYPYTFGQGTKLEIKR . Value?
stdout: 39 min

stdin: Requested field: T½. Item: H1H5772S (antibody, V domains shown, H1H: human IgG1 Fc; divalent; also called H1H5772P) VH: QVQLVESGGGLVQPGRSLRLSCAASGFSFDDYAMHWVRQAPGQGLEWVSGISWNGGSRDYADSVKGRFTISRDNARNSLFLQMNSLFTEDTALYYCAKDKSGYGSYFYGMDVWGQGTTVTVSS VL: EIVLTQSPGILSLSPGDRATLSCRASQSIRNIYLAWYQQKPGQAPRLLIHGASTRATGIPDRFSGSGSGTDFTLTISRLEPEDFAVYYCQQRVSSPYTFGQGTKLEIK
stdout: 13 min

stdin: Please give the measured T½ for this binder: H2M3563N (antibody, mouse IgG2, V domains shown, H2M: mouse IgG2 Fc, human variable regions; divalent) VH: EVHLVESGGGLVQPGRSLRLSCAASGFTFDDYTMHWVRQAPGKGLEWVSDISWNSGSIGYADSVKGRFTVSRDNAKNSLYLQMNSLRGEDTALYYCAKDMSGYGHYGKYGMDVWGQGTTVTVSS VL: DIQMTQSPSSLSASVGDRVTITCRASQSIRSYLNWYQQKPGKVPKLLIYAASSLQSGVPSRFSGSGSGTDFTLTINSLQPDDFATYYCQQTYSNPPITFGQGTRLEIK
stdout: 242 min

Origin of values: patent US20190127480A1
